What pKb was measured for each of the following?
- tested-target: Histamine H3 receptor (Homo sapiens, UniProt Q9Y5N1)
- Sequence (Q9Y5N1 whole entry): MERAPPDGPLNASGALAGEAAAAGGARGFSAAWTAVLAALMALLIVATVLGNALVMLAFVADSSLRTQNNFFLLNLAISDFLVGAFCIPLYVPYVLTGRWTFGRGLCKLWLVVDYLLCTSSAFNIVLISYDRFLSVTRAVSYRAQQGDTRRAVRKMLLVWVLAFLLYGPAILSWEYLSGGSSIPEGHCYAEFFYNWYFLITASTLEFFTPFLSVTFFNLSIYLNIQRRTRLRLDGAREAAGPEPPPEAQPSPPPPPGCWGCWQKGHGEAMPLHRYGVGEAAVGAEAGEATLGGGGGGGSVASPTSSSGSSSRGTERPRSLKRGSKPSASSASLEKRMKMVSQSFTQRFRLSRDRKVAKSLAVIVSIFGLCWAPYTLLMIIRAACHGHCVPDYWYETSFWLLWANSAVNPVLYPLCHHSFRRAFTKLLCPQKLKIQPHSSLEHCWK
- assay-procedure: Antagonist activity at human recombinant histamine H3 receptor expressed in Sf9 cells coexpressing Galphai2,Gbeta1gamma2 and RGS4 assessed as inhibition of histamine-induced [35S]GTPgammaS binding after 90 mins by liquid scintillation counting
- Assay type: functional

Form field, pKb with Histamine H3 receptor (Homo sapiens, UniProt Q9Y5N1), item `N#C/N=C(/NCCCCc1c[nH]cn1)NCCSc1ccccc1` : 6.14

Note to self: pKb of `N#C/N=C(/NCCNc1nccc(N)n1)NCCSc1ccccc1` with Histamine H3 receptor (Homo sapiens, UniProt Q9Y5N1) was < 5

# `Cc1nc(CCCCN/C(=N\C#N)NCCSc2ccccc2)c[nH]1` with Histamine H3 receptor (Homo sapiens, UniProt Q9Y5N1): pKb is < 5

Bench note, Histamine H3 receptor (Homo sapiens, UniProt Q9Y5N1): entry `CN/C(=N\C#N)NCCNc1nccc(N)n1` , its pKb = < 5

Measured on Histamine H3 receptor (Homo sapiens, UniProt Q9Y5N1), `Cc1nccn1CCCCCN/C(=N\C#N)NCCSc1ccccc1` has a documented pKb of < 5

Observed pKb, Histamine H3 receptor (Homo sapiens, UniProt Q9Y5N1), `CN/C(=N\C#N)NCCCNc1ccccn1` : < 5

Tested system Histamine H3 receptor (Homo sapiens, UniProt Q9Y5N1); pKb recorded for `N#C/N=C(\NCCNc1ccnc(N)n1)NCCSc1ccccc1` was 5.54

The measured pKb that `Cc1nc(CCCN/C(=N\C#N)NCCSc2ccccc2)c[nH]1` showed for Histamine H3 receptor (Homo sapiens, UniProt Q9Y5N1) is < 5

Record `CN/C(=N/C#N)NCCCc1c[nH]c(C)n1` has Histamine H3 receptor (Homo sapiens, UniProt Q9Y5N1) pKb equal to < 5

Field pKb (system: Histamine H3 receptor (Homo sapiens, UniProt Q9Y5N1)) for entry `CN/C(=N\C#N)NCCCNc1nccc(N)n1` = < 5

Reading of pKb for `CN/C(=N/C#N)NCCCCCn1ccnc1C` with Histamine H3 receptor (Homo sapiens, UniProt Q9Y5N1): < 5

Log: Histamine H3 receptor (Homo sapiens, UniProt Q9Y5N1), compound `N#C/N=C(/NCCCNc1ccccn1)NCCSc1ccccc1` , pKb = < 5

# value of pKb, Histamine H3 receptor (Homo sapiens, UniProt Q9Y5N1), item `CN/C(=N\C#N)NCCCCNc1ccccn1` = < 5

Item `N#C/N=C(/NCCCCNc1ccccn1)NCCSc1ccccc1` ; assay system Histamine H3 receptor (Homo sapiens, UniProt Q9Y5N1); pKb reported as < 5

The compound `Cc1[nH]cnc1CCCCN/C(=N\C#N)NCCSc1ccccc1` , when measured on Histamine H3 receptor (Homo sapiens, UniProt Q9Y5N1), yielded pKb of 5.5

Reported pKb (Histamine H3 receptor (Homo sapiens, UniProt Q9Y5N1)) for entry `N#C/N=C(/NCCCNc1nccc(N)n1)NCCSc1ccccc1` is 5.14

// pKb (Histamine H3 receptor (Homo sapiens, UniProt Q9Y5N1)) for `CN/C(=N/C#N)NCCCCc1c[nH]c(C)n1` = < 5

Entry source: ChEMBL document CHEMBL3217456
